assay: in vivo; parameters: species or system BALB/c nude mice; conditions: female, BALB/c nude, mouse, iv, 3.7 MBq, total radioactivity, Tumor-to-Small intestine ratio (T/B)
Numbered stars: 1 amine (or outer) side, 2 acyl side, 3 side chain; on linkers, the order of the positions; unused ones are H or OH. Square brackets hold non-standard residues; d marks the D form. Peptide text beside a SMILES is read from it. * marks the point of attachment. DOTA = O=C(O)CN1CCN(CC(=O)O)CCN(CC(=O)*)CCN(CC(=O)O)CC1; d(γGlu) = O=C(O)[C@@H](CCC(=O)[*:2])N[*:1]; 1Nal = N[C@@H](Cc1cccc2ccccc12)C(=O)O; NMeNle = CCCC[C@H](NC)C(=O)O; PEG4 = NCCOCCOCCOCCOCCC(=O)O
PROPERTY_NAME: tissue to tissue ratio at 2 h
Enter a number only.

Task: Recorded tissue to tissue ratio at 2 h of CCCC[C@@H](C(=O)N[C@@H](CC(=O)O)C(=O)N[C@@H](Cc1cccc2ccccc12)C(N)=O)N(C)C(=O)[C@H](Cc1c[nH]c2ccccc12)NC(=O)CCOCCOCCOCCOCCNC(=O)CC[C@@H](NC(=O)CN1CCN(CC(=O)O)CCN(CC(=O)O)CCN(CC(=O)O)CC1)C(=O)O [[68Ga]Ga-DOTA-CCK-66, metal not drawn, reference compound] ({DOTA-d(γGlu)-PEG4}-W[NMeNle]D[1Nal]-NH2) , please.
Output: 25.7

###

test: in vivo; design: species or system BALB/c nude mice; conditions: female, BALB/c nude, mouse, iv, 3.7 MBq, total radioactivity, Tumor-to-Spleen ratio (T/B)
Numbered stars: 1 amine (or outer) side, 2 acyl side, 3 side chain; on linkers, the order of the positions; unused ones are H or OH. Square brackets hold non-standard residues; d marks the D form. Peptide text beside a SMILES is read from it. * marks the point of attachment. DOTA = O=C(O)CN1CCN(CC(=O)O)CCN(CC(=O)*)CCN(CC(=O)O)CC1; d(γGlu) = O=C(O)[C@@H](CCC(=O)[*:2])N[*:1]; 1Nal = N[C@@H](Cc1cccc2ccccc12)C(=O)O; NMeNle = CCCC[C@H](NC)C(=O)O; PEG4 = NCCOCCOCCOCCOCCC(=O)O
PROPERTY_NAME: tissue to tissue ratio at 2 h
Enter a number only.

Task: Recorded tissue to tissue ratio at 2 h of CCCC[C@@H](C(=O)N[C@@H](CC(=O)O)C(=O)N[C@@H](Cc1cccc2ccccc12)C(N)=O)N(C)C(=O)[C@H](Cc1c[nH]c2ccccc12)NC(=O)CCOCCOCCOCCOCCNC(=O)CC[C@@H](NC(=O)CN1CCN(CC(=O)O)CCN(CC(=O)O)CCN(CC(=O)O)CC1)C(=O)O [[68Ga]Ga-DOTA-CCK-66, metal not drawn, reference compound] ({DOTA-d(γGlu)-PEG4}-W[NMeNle]D[1Nal]-NH2) , please.
Output: 24.9

###

experiment: in vivo; parameters: species or system BALB/c nude mice; conditions: mouse, Bladder uptake
Numbered stars: 1 amine (or outer) side, 2 acyl side, 3 side chain; on linkers, the order of the positions; unused ones are H or OH. Square brackets hold non-standard residues; d marks the D form. Peptide text beside a SMILES is read from it. * marks the point of attachment. DOTA = O=C(O)CN1CCN(CC(=O)O)CCN(CC(=O)*)CCN(CC(=O)O)CC1; d(γGlu) = O=C(O)[C@@H](CCC(=O)[*:2])N[*:1]; 1Nal = N[C@@H](Cc1cccc2ccccc12)C(=O)O; NMeNle = CCCC[C@H](NC)C(=O)O; PEG4 = NCCOCCOCCOCCOCCC(=O)O
PROPERTY_NAME: tissue uptake at 1 h (%ID/g)
Note: unit %ID/g is implicit; provide only the numeric part.

Task: Recorded tissue uptake at 1 h of CCCC[C@@H](C(=O)N[C@@H](CC(=O)O)C(=O)N[C@@H](Cc1cccc2ccccc12)C(N)=O)N(C)C(=O)[C@H](Cc1c[nH]c2ccccc12)NC(=O)CCOCCOCCOCCOCCNC(=O)CC[C@@H](NC(=O)CN1CCN(CC(=O)O)CCN(CC(=O)O)CCN(CC(=O)O)CC1)C(=O)O [[68Ga]Ga-DOTA-CCK-66, metal not drawn, reference compound] ({DOTA-d(γGlu)-PEG4}-W[NMeNle]D[1Nal]-NH2) , please.
Output: 1.59

###

format: physicochemical; details: pH 7.4
Numbered stars: 1 amine (or outer) side, 2 acyl side, 3 side chain; on linkers, the order of the positions; unused ones are H or OH. Square brackets hold non-standard residues; d marks the D form. Peptide text beside a SMILES is read from it. * marks the point of attachment. DOTA = O=C(O)CN1CCN(CC(=O)O)CCN(CC(=O)*)CCN(CC(=O)O)CC1; d(γGlu) = O=C(O)[C@@H](CCC(=O)[*:2])N[*:1]; 1Nal = N[C@@H](Cc1cccc2ccccc12)C(=O)O; NMeNle = CCCC[C@H](NC)C(=O)O; PEG4 = NCCOCCOCCOCCOCCC(=O)O
PROPERTY_NAME: logD
Enter a number only.

Task: Recorded logD of CCCC[C@@H](C(=O)N[C@@H](CC(=O)O)C(=O)N[C@@H](Cc1cccc2ccccc12)C(N)=O)N(C)C(=O)[C@H](Cc1c[nH]c2ccccc12)NC(=O)CCOCCOCCOCCOCCNC(=O)CC[C@@H](NC(=O)CN1CCN(CC(=O)O)CCN(CC(=O)O)CCN(CC(=O)O)CC1)C(=O)O [[68Ga]Ga-DOTA-CCK-66, metal not drawn, reference compound] ({DOTA-d(γGlu)-PEG4}-W[NMeNle]D[1Nal]-NH2) , please.
Output: -3.03

###

experiment: in vivo; parameters: species or system BALB/c nude mice; details: female, BALB/c nude, mouse, iv, 3.7 MBq, total radioactivity, Tumor-to-Stomach ratio (T/B)
Numbered stars: 1 amine (or outer) side, 2 acyl side, 3 side chain; on linkers, the order of the positions; unused ones are H or OH. Square brackets hold non-standard residues; d marks the D form. Peptide text beside a SMILES is read from it. * marks the point of attachment. DOTA = O=C(O)CN1CCN(CC(=O)O)CCN(CC(=O)*)CCN(CC(=O)O)CC1; d(γGlu) = O=C(O)[C@@H](CCC(=O)[*:2])N[*:1]; 1Nal = N[C@@H](Cc1cccc2ccccc12)C(=O)O; NMeNle = CCCC[C@H](NC)C(=O)O; PEG4 = NCCOCCOCCOCCOCCC(=O)O
PROPERTY_NAME: tissue to tissue ratio at 0.5 h
Enter a number only.

Task: Recorded tissue to tissue ratio at 0.5 h of CCCC[C@@H](C(=O)N[C@@H](CC(=O)O)C(=O)N[C@@H](Cc1cccc2ccccc12)C(N)=O)N(C)C(=O)[C@H](Cc1c[nH]c2ccccc12)NC(=O)CCOCCOCCOCCOCCNC(=O)CC[C@@H](NC(=O)CN1CCN(CC(=O)O)CCN(CC(=O)O)CCN(CC(=O)O)CC1)C(=O)O [[68Ga]Ga-DOTA-CCK-66, metal not drawn, reference compound] ({DOTA-d(γGlu)-PEG4}-W[NMeNle]D[1Nal]-NH2) , please.
Output: 4.5

###

experiment: in vivo; parameters: species or system BALB/c nude mice; conditions: female, BALB/c nude, mouse, iv, 3.7 MBq, total radioactivity, Tumor-to-Small intestine ratio (T/B)
Numbered stars: 1 amine (or outer) side, 2 acyl side, 3 side chain; on linkers, the order of the positions; unused ones are H or OH. Square brackets hold non-standard residues; d marks the D form. Peptide text beside a SMILES is read from it. * marks the point of attachment. DOTA = O=C(O)CN1CCN(CC(=O)O)CCN(CC(=O)*)CCN(CC(=O)O)CC1; d(γGlu) = O=C(O)[C@@H](CCC(=O)[*:2])N[*:1]; 1Nal = N[C@@H](Cc1cccc2ccccc12)C(=O)O; NMeNle = CCCC[C@H](NC)C(=O)O; PEG4 = NCCOCCOCCOCCOCCC(=O)O
PROPERTY_NAME: tissue to tissue ratio at 0.5 h
Enter a number only.

Task: Recorded tissue to tissue ratio at 0.5 h of CCCC[C@@H](C(=O)N[C@@H](CC(=O)O)C(=O)N[C@@H](Cc1cccc2ccccc12)C(N)=O)N(C)C(=O)[C@H](Cc1c[nH]c2ccccc12)NC(=O)CCOCCOCCOCCOCCNC(=O)CC[C@@H](NC(=O)CN1CCN(CC(=O)O)CCN(CC(=O)O)CCN(CC(=O)O)CC1)C(=O)O [[68Ga]Ga-DOTA-CCK-66, metal not drawn, reference compound] ({DOTA-d(γGlu)-PEG4}-W[NMeNle]D[1Nal]-NH2) , please.
Output: 5.83

###

test: in vivo; parameters: species or system BALB/c nude mice; conditions: female, BALB/c nude, mouse, iv, 3.7 MBq, total radioactivity, Tumor-to-Large intestine ratio (T/B)
Numbered stars: 1 amine (or outer) side, 2 acyl side, 3 side chain; on linkers, the order of the positions; unused ones are H or OH. Square brackets hold non-standard residues; d marks the D form. Peptide text beside a SMILES is read from it. * marks the point of attachment. DOTA = O=C(O)CN1CCN(CC(=O)O)CCN(CC(=O)*)CCN(CC(=O)O)CC1; d(γGlu) = O=C(O)[C@@H](CCC(=O)[*:2])N[*:1]; 1Nal = N[C@@H](Cc1cccc2ccccc12)C(=O)O; NMeNle = CCCC[C@H](NC)C(=O)O; PEG4 = NCCOCCOCCOCCOCCC(=O)O
PROPERTY_NAME: tissue to tissue ratio at 2 h
Enter a number only.

Task: Recorded tissue to tissue ratio at 2 h of CCCC[C@@H](C(=O)N[C@@H](CC(=O)O)C(=O)N[C@@H](Cc1cccc2ccccc12)C(N)=O)N(C)C(=O)[C@H](Cc1c[nH]c2ccccc12)NC(=O)CCOCCOCCOCCOCCNC(=O)CC[C@@H](NC(=O)CN1CCN(CC(=O)O)CCN(CC(=O)O)CCN(CC(=O)O)CC1)C(=O)O [[68Ga]Ga-DOTA-CCK-66, metal not drawn, reference compound] ({DOTA-d(γGlu)-PEG4}-W[NMeNle]D[1Nal]-NH2) , please.
Output: 26.2
